# target system: KRAS G12D (GDP-loaded, hexahistidine tagged, truncated 1-169) (Homo sapiens, UniProt P01116, G12D)
# Construct: truncated (1-169) KRAS proteins; hexahistidine
# Sequence (P01116 1-169 isoform P01116-2 G12D): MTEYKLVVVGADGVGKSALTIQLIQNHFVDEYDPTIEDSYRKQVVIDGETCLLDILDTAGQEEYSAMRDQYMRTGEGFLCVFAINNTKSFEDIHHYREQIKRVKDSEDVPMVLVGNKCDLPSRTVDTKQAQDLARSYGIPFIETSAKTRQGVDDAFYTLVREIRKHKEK
# test name: SOS-mediated nucleotide exchange assay, KRAS G12D
# condition parameters: SOS(cat)-mediated Bodipy-GDP exchange
pIC50: −log10 of the molar value.
value kind: pIC50

The cases that follow already have their pIC50 on record.
CN(C)CCCOc1nc(N2CCNC(CC(N)=O)C2)c2cc(Cl)c(-c3cc(O)cc4ccccc34)c(F)c2n1 (centres unmarked); > 4.82
CN(CCOc1nc(N2CCOCC2)c2cc(Cl)c(-c3cc(O)cc4ccccc34)c(F)c2n1)C(=O)CCl; < 4.82
CN(CCCCCN=[N+]=[N-])CCCOc1nc(N2CCNCC2)c2cc(Cl)c(-c3cc(O)cc4ccccc34)c(F)c2n1; < 4.82
C[C@@H]1CN(c2nc(OCCCN(C)C)nc3c(F)c(-c4cc(O)cc5ccccc45)c(Cl)cc23)[C@@H](C)CN1 (atropisomer, axis not shown); < 4.82
CN(C)CCCOc1nc(N2CCN[C@@H](C(N)=O)C2)c2cc(Cl)c(-c3cc(O)cc4ccccc34)c(F)c2n1; < 4.82

Need pIC50 of `CN(C(=O)CO)C1CN(c2nc(N3CCNCC3)c3cc(Cl)c(-c4cc(O)cc5ccccc45)c(F)c3n2)C1` , thanks.
< 4.82

Need pIC50 of `CC(=O)NCCCCCN(C)CCCOc1nc(N2CCOCC2)c2cc(Cl)c(-c3cc(O)cc4ccccc34)c(F)c2n1` , thanks.
< 4.82

Need pIC50 of `CN(C(=O)CN)C1CN(c2nc(N3CCNCC3)c3cc(Cl)c(-c4cc(O)cc5ccccc45)c(F)c3n2)C1` , thanks.
> 4.82

Need pIC50 of `Cc1ccc2[nH]ncc2c1-c1c(Cl)cc2c(N3CCNCC3)nc(OCCCN(C)C)nc2c1F` , thanks.
< 4.82

Need pIC50 of `CN(C(=O)CCl)C1CN(c2nc(N3CCNCC3)c3cc(Cl)c(-c4cc(O)cc5ccccc45)c(F)c3n2)C1` , thanks.
< 4.82

Need pIC50 of `O=S(=O)(F)CCOc1nc(N2CCOCC2)c2cc(Cl)c(-c3cc(O)cc4ccccc34)c(F)c2n1` , thanks.
< 4.82
